// provenance: ChEMBL document CHEMBL1132961

# PROTOCOL_NOTES: Half-life period in rat
# Format: ADME, organism-based
# CONDITION_CONTEXT: in vivo
Please go through the items and note down their half-life.
One number for each entry, in h.

As a guide, the following entries are already answered.
Cc1cc(SC2=C(O)O[C@](CCc3ccccc3)(C(C)C)CC2=O)c(C(C)(C)C)cc1NS(=O)(=O)c1ccc(C(F)(F)F)cn1 | 2.3
Cc1cc(SC2=C(O)O[C@](CCc3ccccc3)(C(C)C)CC2=O)c(C(C)(C)C)cc1NS(=O)(=O)c1ccc(C#N)cc1 | 5.7

Please examine the following record next.
Lab note: measured half-life of Cc1cc(SC2=C(O)O[C@](CCc3ccc(O)cc3)(C(C)C)CC2=O)c(C(C)(C)C)cc1OS(C)(=O)=O was 0.94
